measurement-target: Cytochrome P450 2C9 (Homo sapiens)
Sequence (P11712 whole entry): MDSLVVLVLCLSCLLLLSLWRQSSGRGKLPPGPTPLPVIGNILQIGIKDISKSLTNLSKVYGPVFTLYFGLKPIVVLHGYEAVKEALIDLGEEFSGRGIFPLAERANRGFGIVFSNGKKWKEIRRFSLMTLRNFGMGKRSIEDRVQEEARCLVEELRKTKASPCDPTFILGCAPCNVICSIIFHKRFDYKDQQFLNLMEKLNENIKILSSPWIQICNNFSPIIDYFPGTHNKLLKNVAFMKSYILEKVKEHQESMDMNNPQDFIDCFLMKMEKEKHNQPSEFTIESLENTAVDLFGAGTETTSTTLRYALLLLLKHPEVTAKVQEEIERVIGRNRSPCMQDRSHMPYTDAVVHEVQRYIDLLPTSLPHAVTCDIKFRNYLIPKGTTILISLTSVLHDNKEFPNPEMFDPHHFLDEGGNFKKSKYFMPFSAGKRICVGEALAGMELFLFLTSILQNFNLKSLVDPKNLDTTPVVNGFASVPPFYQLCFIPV
parameter: IC50

Measured IC50 of O=C([O-])c1cccc(Cc2cc(Cl)ccc2OCc2ccc(Cl)cc2F)n1.[Na+] : 8 µM

====

procedure-details: Metabolic stability in rat liver microsomes assessed as compound turnover after 30 mins
Type: ADME, Microsome
experimental-conditions: read-out: Stability
parameter: metabolised at 0.5 h

metabolised at 0.5 h in this record for O=C(O)c1cccc(Cc2cc(Cl)ccc2OCc2ccc(Cl)cc2Cl)n1 : < 15%

====

procedure-details: Clearance in Beagle dog blood at 1 mg/kg administered by intravenous infusion for 1 hr
Format: ADME, organism-based, Canis lupus familiaris
Set-up: dose 1 mg/kg, route intravenous
parameter: clearance (mL/min/kg)
Field: numeric (mL/min/kg). Do not append units.

GET /value?item= O=C([O-])c1cccc(Cc2cc(Cl)ccc2OCc2ccc(Cl)cc2F)n1.[Na+] &field=clearance returns 18

====

Tested on: Hepatocyte
procedure-details: Intrinsic clearance in rat hepatocytes measured per gram of live
Format: ADME, cell-based, Liver
parameter: clearance (mL/min/g)
Give the value in mL/min/g but do not write mL/min/g after it.

Value of measured clearance for the entry O=C([O-])c1cccc(Cc2cc(Cl)ccc2OCc2ccc(Cl)cc2F)n1.[Na+] : 2.1

====

procedure-details: Drug level in mouse blood at 0.5 mg/kg/hr administered by infusion for 12 hrs
Format: ADME, organism-based
experimental-conditions: intravenous, read-out: Drug uptake
parameter: concentration at 12 h (nM)
The reply should contain only the number, in nM.

concentration at 12 h for O=C([O-])c1cccc(Cc2cc(Cl)ccc2OCc2ccc(Cl)cc2F)n1.[Na+] is 199

====

procedure-details: Drug level in blood of complete Freund's adjuvant-induced rat inflammatory pain model at 3 mg/kg, po administered after 23 hrs of adjuvant challenge measured after 1 hr
Format: ADME, organism-based
Parameters: dose 3 mg/kg, route oral
experimental-conditions: read-out: Drug uptake
parameter: concentration at 1 h (nM)
Express the result in nM but write the number alone.

O=C([O-])c1cccc(Cc2cc(Cl)ccc2OCc2ccc(F)cc2Cl)n1.[Na+] has a reported concentration at 1 h of 836

concentration at 1 h reported for this compound O=C([O-])c1cccc(Cc2cc(Cl)ccc2OCc2ccc(Cl)cc2F)n1.[Na+] : 415

====

measurement-target: Prostaglandin G/H synthase 2 (Homo sapiens, UniProt P35354)
Sequence (P35354 whole entry): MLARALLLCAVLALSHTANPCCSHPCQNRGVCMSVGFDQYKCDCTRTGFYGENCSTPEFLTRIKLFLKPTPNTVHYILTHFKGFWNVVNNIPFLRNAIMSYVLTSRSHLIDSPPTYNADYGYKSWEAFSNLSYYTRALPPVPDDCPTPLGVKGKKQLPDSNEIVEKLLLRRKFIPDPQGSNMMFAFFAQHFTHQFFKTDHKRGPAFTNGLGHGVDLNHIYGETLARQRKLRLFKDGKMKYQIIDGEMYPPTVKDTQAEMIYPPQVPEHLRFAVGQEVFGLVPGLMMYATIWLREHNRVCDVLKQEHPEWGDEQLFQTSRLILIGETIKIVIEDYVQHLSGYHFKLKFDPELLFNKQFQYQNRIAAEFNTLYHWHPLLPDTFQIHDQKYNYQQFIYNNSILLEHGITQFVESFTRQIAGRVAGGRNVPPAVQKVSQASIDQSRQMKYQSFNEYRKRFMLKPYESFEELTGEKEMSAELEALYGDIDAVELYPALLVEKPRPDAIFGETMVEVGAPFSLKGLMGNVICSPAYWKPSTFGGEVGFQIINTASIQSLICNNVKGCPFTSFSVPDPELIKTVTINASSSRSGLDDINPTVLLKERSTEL
procedure-details: Inhibition of COX2
pIC50: −log10 of the molar value.
parameter: pIC50

response.value for O=C([O-])c1cccc(Cc2cc(Cl)ccc2OCc2ccc(Cl)cc2F)n1.[Na+] (field: pIC50) = < 4.00

====

procedure-details: Ratio of drug level in brain to blood in complete Freund's adjuvant-induced rat inflammatory pain model at 1 mg/kg, po administered after 23 hrs of adjuvant challenge measured after 1 hr
Type: ADME, organism-based
Set-up: dose 1 mg/kg, route oral
experimental-conditions: brain and blood
parameter: Kp at 1 h
Please reply with the number alone, leaving off any unit.

The compound listed as O=C([O-])c1cccc(Cc2cc(Cl)ccc2OCc2ccc(Cl)cc2F)n1.[Na+] shows Kp at 1 h equal to 0.37

The reported value for O=C([O-])c1cccc(Cc2cc(Cl)ccc2OCc2ccc(F)cc2Cl)n1.[Na+] in terms of Kp at 1 h is 0.31

====

Give concentration at 1 h for every item shown.
procedure-details: Drug level in brain of complete Freund's adjuvant-induced rat inflammatory pain model at 10 mg/kg, po administered after 23 hrs of adjuvant challenge measured after 1 hr
Type: ADME, organism-based
Set-up: dose 10 mg/kg, route oral
experimental-conditions: brain, read-out: Drug uptake
Please reply with the bare figure in nM and do not write the unit itself.

// O=C([O-])c1cccc(Cc2cc(Cl)ccc2OCc2ccc(Cl)cc2F)n1.[Na+] : concentration at 1 h value = 501

The compound listed as O=C([O-])c1cccc(Cc2cc(Cl)ccc2OCc2ccc(F)cc2Cl)n1.[Na+] has a reported concentration at 1 h of 1120
